# EXPERIMENTAL PROTOCOL: Metabolic stability in mouse liver microsomes
# Format: in vitro ADME
# PARTICULARS: 1 μM compound, 0.5 mg/mL microsomal protein, 1 mM NADPH
MEASURED PROPERTY: Stability in mouse liver microsomes (% test compound remaining after 60 min)

Past entries and their recorded results:
[
  {
    "STRUCTURE SMILES": "O=[N+]([O-])c1ccc(-c2cccc(-c3nnn[nH]3)c2)cc1NCc1ccccc1",
    "RESULT": "60%"
  },
  {
    "STRUCTURE SMILES": "CN(C)C(=O)c1cccc(-c2ccc([N+](=O)[O-])c(NCc3ccccc3)c2)c1",
    "RESULT": "<1.0%"
  }
]

Then this compound:
Item: O=C(c1cccc(-c2ccc([N+](=O)[O-])c(NCc3ccccc3)c2)c1)N1CCCCC1 | Stability in mouse liver microsomes (% test compound remaining after 60 min): <1.0%
